Every entry's value here was drawn from paper PMC6471591.

- Tested on: HBL100 cells
- Experiment Notes: Antiproliferative SRB assay (NCI protocol), 48 h
- Assay type: cell-based
- Condition Notes: Homo sapiens, HBL-100; HBL100 (breast), SRB, 48 h drug exposure; read-out: 50% growth inhibition (GI50) ± SD, HBL100
Reported Metric: GI50 (µM)
Field format: number, assumed µM, no unit text.

Known results for compounds:
[
  {
    "Compound": "C=C1C(=O)O[C@@H]2C[C@H](C)[C@@H]3C[C@H](O[Si](c4ccccc4)(c4ccccc4)C(C)(C)C)[C@H](O)[C@@]3(C)C[C@H]12",
    "Study Target": "HBL100 cells",
    "Unit Tag": "µM",
    "GI50": 3.7
  },
  {
    "Compound": "C#CCOC1CC2C(C)CC3OC(=O)C(=C)C3CC2(C)C1O (stereo not shown)",
    "Study Target": "HBL100 cells",
    "Unit Tag": "µM",
    "GI50": 17
  },
  {
    "Compound": "C=C1C(=O)O[C@@H]2C[C@H](C)[C@@H]3C[C@H](OC(C)=O)[C@H](OC(C)=O)[C@@]3(C)C[C@H]12",
    "Study Target": "HBL100 cells",
    "Unit Tag": "µM",
    "GI50": 23
  },
  {
    "Compound": "C=C1C(=O)O[C@@H]2C[C@@H](C)[C@@H]3C=CC(=O)[C@@]3(C)[C@@H](O[Si](C)(C)C(C)C)[C@H]12",
    "Study Target": "HBL100 cells",
    "Unit Tag": "µM",
    "GI50": 0.2
  },
  {
    "Compound": "C#CCOC1CC2C(C)CC3OC(=O)C(=C)C3CC2(C)C1OCC#C (stereo not shown)",
    "Study Target": "HBL100 cells",
    "Unit Tag": "µM",
    "GI50": 19
  }
]

// sample C=C1C(=O)O[C@@H]2C[C@H](C)[C@@H]3C[C@H](O[Si](C)(C)C)[C@H](O[Si](C)(C)C)[C@@]3(C)C[C@H]12 , its GI50 was 3.6

Given item C=C1C(=O)OC2CC(C)C3CC(OCc4cn(Cc5ccccc5)nn4)C(OCc4cn(Cc5ccccc5)nn4)C3(C)CC12 (stereo not shown) , the value recorded as its GI50 is 6.4

---

- System: SW1573 cells
- Experiment Notes: Antiproliferative SRB assay (NCI protocol), 48 h
- Assay type: cell-based, human
- Condition Notes: Homo sapiens; SW1573 (non-small cell lung), SRB, 48 h drug exposure; read-out: 50% growth inhibition (GI50) ± SD, SW1573
Reported Metric: GI50 (µM)
Respond with the bare value in µM.

[
  {
    "Compound": "C#CCOC1CC2C(C)CC3OC(=O)C(=C)C3CC2(C)C1O (centres unmarked) [Compound 8]",
    "Unit Tag": "µM",
    "GI50": 28
  }
]

Here is another compound to look at.
Lab note: C=C1C(=O)O[C@@H]2[C@H]1CC[C@H](C)[C@@]1(O[Si](C)(C)C)C=CC(=O)[C@@]21C [Compound 15] gave GI50 of 2.4

---

- Tested on: HBL100 cells
- Experiment Notes: Antiproliferative SRB assay (NCI protocol), 48 h
- Assay type: cell-based
- Condition Notes: Homo sapiens, HBL-100; HBL100 (breast), SRB, 48 h drug exposure; read-out: 50% growth inhibition (GI50) ± SD, HBL100
Reported Metric: GI50 (µM)
Answer format: numeric, µM implied, no suffix.

Sample answers from the record:
[
  {
    "Compound": "C=C1C(=O)O[C@@H]2[C@H]1CC[C@H](C)[C@@]1(O[Si](C)(C)C)C=CC(=O)[C@@]21C [Compound 15]",
    "Study Target": "HBL100 cells",
    "Reported Metric": "GI50",
    "Recorded Number": 4.6
  },
  {
    "Compound": "C=C1C(=O)O[C@@H]2C[C@H](C)[C@@H]3C[C@H](O[Si](C)(C)C(C)C)[C@H](O[Si](C)(C)C(C)C)[C@@]3(C)C[C@H]12 [Compound 6]",
    "Study Target": "HBL100 cells",
    "Reported Metric": "GI50",
    "Recorded Number": 2.3
  }
]

Record C=C1C(=O)O[C@@H]2[C@H]1CC[C@H](C)[C@@]1(O)C=CC(=O)[C@@]21C [Compound 3, hymenin] has HBL100 cells GI50 equal to 17

Measured GI50 for this entry C=C1C(=O)OC2CC(C)C3CC(O)C(O)C3(C)CC12 (stereo not shown) [Compound 1, cumanin] on HBL100 cells: 21

The compound C=C1C(=O)O[C@@H]2C[C@@H](C)[C@@H]3C=CC(=O)[C@@]3(C)[C@@H](O[Si](C)(C)C)[C@H]12 [Compound 13] , tested on HBL100 cells, showed GI50 of 0.36

Readout GI50 for C=C1C(=O)OC2CC(C)C3CC(OCc4cn(Cc5ccccc5)nn4)C(O)C3(C)CC12 (stereo not shown) [Compound 10] , test system HBL100 cells, was 29

I looked up C=C1C(=O)O[C@@H]2C[C@@H](C)[C@@H]3C=CC(=O)[C@@]3(C)[C@@H](OC(C)=O)[C@H]12 [Compound 12] and its GI50 for HBL100 cells was 3.6

---

- Experiment Notes: Cytotoxicity on primary cell culture (propidium iodide, flow cytometry)
- Type: cell-based
- Condition Notes: Balb/c mouse spleen cells, 48 h incubation, PI staining; read-out: CC50 ± SD, splenocytes (concentration that causes 50% cell death)
Reported Metric: CC50 (µM)
Record the value in µM, omitting the unit from your answer.

Query C=C1C(=O)O[C@@H]2C[C@@H](C)[C@@H]3C=CC(=O)[C@@]3(C)[C@@H](OC(C)=O)[C@H]12 [Compound 12] yields CC50 of 0.4

---

- Test system: SW1573 cells
- Experiment Notes: Antiproliferative SRB assay (NCI protocol), 48 h
- Assay type: cell-based, human
- Condition Notes: splenocyte CC50 versus SW1573 GI50
Reported Selectivity Index, SW1573 values for a set of molecules
Answer with the value's number alone.

The molecule C=C1C(=O)O[C@@H]2C[C@H](C)[C@@H]3C[C@H](O[Si](c4ccccc4)(c4ccccc4)C(C)(C)C)[C@H](O)[C@@]3(C)C[C@H]12 showed Selectivity Index, SW1573 equal to 95.1

Selectivity Index, SW1573 in this record for C=C1C(=O)O[C@@H]2[C@H]1CC[C@H](C)[C@@]1(O)C=CC(=O)[C@@]21C : 0.7

Field Selectivity Index, SW1573 (entry C=C1C(=O)O[C@@H]2C[C@@H](C)[C@@H]3C=CC(=O)[C@@]3(C)[C@@H](O[Si](C)(C)C(C)C)[C@H]12 ) reads 7.4

Selectivity Index, SW1573 recorded for this molecule, C#CCOC1CC2C(C)CC3OC(=O)C(=C)C3CC2(C)C1O (centres unmarked) , is 6.4

// field: Selectivity Index, SW1573; key: C=C1C(=O)O[C@@H]2C[C@H](C)[C@@H]3C[C@H](OC(C)=O)[C@H](OC(C)=O)[C@@]3(C)C[C@H]12 ; value = 21.9

---

- Tested on: SW1573 cells
- Experiment Notes: Antiproliferative SRB assay (NCI protocol), 48 h
- Format: cell-based, human
- Condition Notes: splenocyte CC50 versus SW1573 GI50
Assign true (1) to entries whose Selectivity Index, SW1573 meets or exceeds 0.9; assign false (0) to the rest.

Worked examples, 5 compounds total:
[
  {
    "Compound": "C=C1C(=O)OC2CC(C)C3CC(OCc4cn(Cc5ccccc5)nn4)C(O)C3(C)CC12 (stereo not shown) [Compound 10]",
    "Category Label": "true (1)"
  },
  {
    "Compound": "C=C1C(=O)O[C@@H]2C[C@H](C)[C@@H]3C[C@H](O[Si](C)(C)C(C)C)[C@H](O[Si](C)(C)C(C)C)[C@@]3(C)C[C@H]12 [Compound 6]",
    "Category Label": "true (1)"
  },
  {
    "Compound": "C=C1C(=O)O[C@@H]2C[C@H](C)[C@@H]3C[C@H](O[Si](C)(C)C)[C@H](O[Si](C)(C)C)[C@@]3(C)C[C@H]12 [Compound 5]",
    "Category Label": "true (1)"
  },
  {
    "Compound": "C=C1C(=O)O[C@@H]2C[C@@H](C)[C@@H]3C=CC(=O)[C@@]3(C)[C@@H](O)[C@H]12 [Compound 2, helenalin]",
    "Category Label": "false (0)"
  },
  {
    "Compound": "C=C1C(=O)O[C@@H]2C[C@@H](C)[C@@H]3C=CC(=O)[C@@]3(C)[C@@H](OC(C)=O)[C@H]12 [Compound 12]",
    "Category Label": "false (0)"
  }
]

Kindly review the next compound as well.
Assess whether reported Selectivity Index, SW1573 for C#CCOC1CC2C(C)CC3OC(=O)C(=C)C3CC2(C)C1OCC#C (stereo not shown) [Compound 9] sits at 0.9 or higher.
true (1)
